These entries and their values trace back to PubChem BioAssay (NCI).

tested on: ACHN renal; assay: NCI tumour cell line growth inhibition, 48 h; in the data active = GI50 below about 0.43 µM; inactive = the rest
Thanks in advance; please answer with one of these: active, inactive

Please review the following examples before continuing.
COC(=O)CNC(=O)COc1c(OC)c(OC)cc2oc(-c3cccc(C(=O)Nc4ccc(Cl)cc4)c3)cc(=O)c12: inactive
CSc1ccc(C(=O)Nc2ccc3nn(/C(C#N)=C/c4ccccn4)nc3c2)cc1: inactive
CN1CCN(C(=O)Oc2cc3c(c4ccccc24)[C@H](CCl)CN3C(=O)c2cc3cc(OCCCN4CCC4)ccc3[nH]2)[C@H]2CSSC[C@H]21: active

What is the recorded call for this compound in the test? COc1c(B(O)O)cc(F)cc1-c1nc2c(F)cc3[nH]ncc3c2c2c1CCCC2
inactive

###

system: NCI/ADR-RES ovarian; test: NCI tumour cell line growth inhibition, 48 h
I'd appreciate it if you could supply TGI values for the items below.

Use these answered entries as a reference point.
CC1=C(c2cc(-c3ccc(Cl)cc3)c(C#N)c(N)n2)C(c2ccccc2)NC(=S)N1 (centres undefined): 26.2 µM
N/C(=N\c1nc2ccc([N+](=O)[O-])cc2s1)NC(=O)Nc1ccccc1Cl: > 100 µM
CN1CCN(C(=O)Oc2cc3c(c4ccccc24)[C@H](CCl)CN3C(=O)c2cc3cc(OCCCN4CCC4)ccc3[nH]2)[C@H]2CSSC[C@H]21: 0.0536 µM

Next:
Which TGI reading was recorded for the compound CCNCCCn1c2c(c3cc(OC)c(OC)cc3c1=O)C(=O)c1cc3c(nc1-2)OCO3 ?
4.14 µM

###

test system: IGROV1 ovarian; assay: NCI tumour cell line growth inhibition, 48 h
I'd appreciate it if you could supply TGI values for the items below.
Numbers only, in µM.

Use these answered entries as a reference point.
O=C(c1ccc(Cl)cc1)C1[C@H](c2ccc(Br)cc2)[C@@H](c2ccccc2)NC12C(=O)Nc1ccc(Br)cc12 (stereo not given in full): 8.43
CCNCCCn1c2c(c3cc(OC)c(OC)cc3c1=O)C(=O)c1cc3c(nc1-2)OCO3: 25.7
CC1=C(c2cc(-c3ccc(Cl)cc3)c(C#N)c(N)n2)C(c2ccccc2)NC(=S)N1 (stereo not given): 36.4

Next:
Which TGI reading was recorded for the compound COc1cc2c3c(n(CCCNC(C)C)c(=O)c2cc1OC)-c1nc2c(cc1C3=O)OCO2 ?
30.7

###

system: SK-OV-3 ovarian; assay: NCI tumour cell line growth inhibition, 48 h
quantity measured: GI50

Use these answered entries as a reference point.
COc1c(B(O)O)cc(F)cc1-c1nc2c(F)cc3[nH]ncc3c2c2c1CCCC2: 4.1 µM
COC(=O)CNC(=O)COc1c(OC)c(OC)cc2oc(-c3cccc(C(=O)Nc4ccc(Cl)cc4)c3)cc(=O)c12: 11.1 µM
CSc1ccc(C(=O)Nc2ccc3nn(/C(C#N)=C/c4ccccn4)nc3c2)cc1: 5.18 µM

Next:
Which GI50 reading was recorded for the compound O=C(c1ccc(Cl)cc1)C1[C@H](c2ccc(Br)cc2)[C@@H](c2ccccc2)NC12C(=O)Nc1ccc(Br)cc12 (some centres undefined) ?
5.49 µM

###

I'd appreciate it if you could supply GI50 values for the items below.
system: LOX IMVI melanoma; test: NCI tumour cell line growth inhibition, 48 h

Use these answered entries as a reference point.
O=C(c1ccc(Cl)cc1)C1[C@H](c2ccc(Br)cc2)[C@@H](c2ccccc2)NC12C(=O)Nc1ccc(Br)cc12 (stereo not given in full): 0.927 µM
COC(=O)CNC(=O)COc1c(OC)c(OC)cc2oc(-c3cccc(C(=O)Nc4ccc(Cl)cc4)c3)cc(=O)c12: 5.02 µM
CSc1ccc(C(=O)Nc2ccc3nn(/C(C#N)=C/c4ccccn4)nc3c2)cc1: 0.664 µM

Below are 2 compounds. Give each one its GI50.
1. Nc1nn2c(-c3cc4cc(Br)ccc4oc3=O)ccnc2c1N=Nc1ccc(Br)cc1
2. CCNCCCn1c2c(c3cc(OC)c(OC)cc3c1=O)C(=O)c1cc3c(nc1-2)OCO3

["2.09 µM", "0.487 µM"]
